- Test system: HCC1143
- PROTOCOL_TEXT: normalised response (% of control), CellTiter-Glo; higher = more viable cells (100 = DMSO, 0 = benzethonium chloride kill control)
- CONDITION_INFO: incubation time: 72 h
OBSERVABLE: normalised response (%)
Answers are plain numbers, in %.

Answered cases to consult:
>>> observed_value("S=c1[nH]cnc2nc[nH]c12 [Mercaptopurine] (10000 nM)")
101
>>> observed_value("Nc1nc(Cl)nc2c1ncn2[C@H]1C[C@H](O)[C@@H](CO)O1 [Cladribine] (1000 nM)")
92
>>> observed_value("O=C(c1ccc(C(=O)N2CCC(N3CCCC3)CC2)c(Nc2ccccc2)c1)N1CCC(N2CCCC2)CC1 [UNC1215] (30000 nM)")
96.5
>>> observed_value("CC(=O)O[C@]1(C(C)=O)CC[C@H]2[C@@H]3C=C(C)C4=CC(=O)CC[C@]4(C)[C@H]3CC[C@@]21C [Megestrol acetate] (10000 nM)")
102
>>> observed_value("CCN1CCN(c2ccc(Nc3cc(N(C)C(=O)Nc4c(Cl)c(OC)cc(OC)c4Cl)ncn3)cc2)CC1 [NVP-BGJ398] (1000 nM)")
93.6

Here are 3 compounds. What values of normalised response were reported for them?
1. N#CC[C@H](C1CCCC1)n1cc(-c2ncnc3[nH]ccc23)cn1 [Ruxolitinib] (10000 nM)
2. Cc1c2oc3c(C)ccc(C(=O)N[C@@H]4C(=O)N[C@H](C(C)C)C(=O)N5CCC[C@H]5C(=O)N(C)CC(=O)N(C)[C@@H](C(C)C)C(=O)O[C@@H]4C)c3nc-2c(C(=O)N[C@@H]2C(=O)N[C@H](C(C)C)C(=O)N3CCC[C@H]3C(=O)N(C)CC(=O)N(C)[C@@H](C(C)C)C(=O)O[C@@H]2C)c(N)c1=O [Dactinomycin] (1000 nM)
3. Nc1ccn([C@@H]2O[C@H](CO)[C@@H](O)[C@@H]2O)c(=O)n1 [Cytarabine] (10000 nM)

[reply]
[93.3, 11.3, 55.9]
